Catalogue of abundance fitness readings, one per entry.
B1: POU domain, class 3, transcription factor 4, residues 280 to 335; numbered along this chain, P49335 (parent)
chain: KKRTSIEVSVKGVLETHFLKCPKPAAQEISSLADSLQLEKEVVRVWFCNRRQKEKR

- Variants of: B1
- Assay protocol: abundance fitness (aPCA) (normalised: wild type 0, dead -1); higher = more abundant; growth selection in yeast, the domain comes from the species named
- Experimental setup: Homo sapiens

Prompt line: Write down abundance fitness measured for item KKRTSPEVSVKGVLETHFLKCPKPAAQEISSLADSLQLEKEVVRVWFCNRRQKEKR [I6P]
Response line: -0.169

Prompt line: Write down abundance fitness measured for item KKRTSIEVSVKGVLETHFLKCEKPAAQEISSLADSLQLEKEVVRVWFCNRRQKEKR [P22E]
Response line: -0.702

Prompt line: Write down abundance fitness measured for item KKRTSIEVSVKGVLETHFLKCPKPAAQEISSLADSLQLEGEVVRVWFCNRRQKEKR [K40G]
Response line: -0.441

Prompt line: Write down abundance fitness measured for item KKRTSIEVSVKGVLETHFLKCPKPAAQEISSLADSLQLEHEVVRVWFCNRRQKEKR [K40H]
Response line: 0.099

Prompt line: Write down abundance fitness measured for item KKRTSIEVSVKGVTETHFLKCPKPAAQEISSLADSLQLEKEVVRVWFCNRRQKEKR [L14T]
Response line: -0.537
